System: 143B
test.summary: Cytotoxicity test (MTT, 72 h)
condition.context: Homo sapiens, read-out: 50% Inhibiting Concentration value (IC50)
pIC50: −log10 of the molar value.
Values of pIC50 greater than or equal to 5 map to y; values below map to n.

CCc1c2c(nc3ccc(OC(=O)OCCOCc4cn([C@H]5O[C@@H](CO)[C@H](O)[C@@H](O)[C@@H]5O)nn4)cc13)-c1cc3c(c(=O)n1C2)COC(=O)[C@]3(O)CC | n
CCc1c2c(nc3ccc(OC(=O)OCCOCCOCCOCc4cn([C@H]5O[C@@H](CO)[C@H](O)[C@@H](O)[C@@H]5O)nn4)cc13)-c1cc3c(c(=O)n1C2)COC(=O)[C@]3(O)CC | n
CCc1c2c(nc3ccc(OC(=O)NCCCCCOCc4cn(CCO[C@H]5O[C@@H](CO)[C@H](O)[C@@H](O)[C@@H]5O)nn4)cc13)-c1cc3c(c(=O)n1C2)COC(=O)[C@]3(O)CC | y

Q) Tell me whether pIC50 is at least 5 here: `CCc1c2c(nc3ccc(OC(=O)NCCOCCOCc4cn([C@H]5O[C@@H](CO)[C@H](O)[C@@H](O)[C@@H]5O)nn4)cc13)-c1cc3c(c(=O)n1C2)COC(=O)[C@]3(O)CC`
A) y

Q) Tell me whether pIC50 is at least 5 here: CCc1c2c(nc3ccc(OC(=O)NCCOCCOCc4cn(CCO[C@H]5O[C@@H](CO)[C@H](O)[C@@H](O)[C@@H]5O)nn4)cc13)-c1cc3c(c(=O)n1C2)COC(=O)C3(O)CC (stereo partly shown)
A) y

Q) Tell me whether pIC50 is at least 5 here: `CCc1c2c(nc3ccc(OC(=O)NCCOCc4cn(CCO[C@H]5O[C@@H](CO)[C@H](O)[C@@H](O)[C@@H]5O)nn4)cc13)-c1cc3c(c(=O)n1C2)COC(=O)[C@]3(O)CC`
A) y

----------
Tested on: SW-480
test.summary: Cytotoxicity test (MTT, 72 h)
condition.context: Homo sapiens, SW480, 72 h, read-out: 50% Inhibiting Concentration value (IC50)
measure: IC50 (µM)
Answer in µM, number only, no unit symbol.

A selection of reference data follows.
CCc1c2c(nc3ccc(OC(=O)NCCCCCOCc4cn(CCO[C@H]5O[C@@H](CO)[C@H](O)[C@@H](O)[C@@H]5O)nn4)cc13)-c1cc3c(c(=O)n1C2)COC(=O)[C@]3(O)CC | 0.865
CCc1c2c(nc3ccc(OC(=O)NCCCCCOCc4cn([C@H]5O[C@@H](CO)[C@H](O)[C@@H](O)[C@@H]5O)nn4)cc13)-c1cc3c(c(=O)n1C2)COC(=O)[C@]3(O)CC | 1.15
CCc1c2c(nc3ccc(OC(=O)OCCOCCOCCOCCOCc4cn([C@H]5O[C@@H](CO)[C@H](O)[C@@H](O)[C@@H]5O)nn4)cc13)-c1cc3c(c(=O)n1C2)COC(=O)[C@]3(O)CC | 0.167
CCc1c2c(nc3ccc(OC(=O)OCCOCCOCCOCCOCc4cn(CCO[C@H]5O[C@@H](CO)[C@H](O)[C@@H](O)[C@@H]5O)nn4)cc13)-c1cc3c(c(=O)n1C2)COC(=O)[C@]3(O)CC | 1.21

Proceed to the following item.
Q) IC50 for `CCc1c2c(nc3ccc(OC(=O)OCCOCc4cn(CCO[C@H]5O[C@@H](CO)[C@H](O)[C@@H](O)[C@@H]5O)nn4)cc13)-c1cc3c(c(=O)n1C2)COC(=O)[C@]3(O)CC` ?
A) 0.112

----------
test.summary: Solubility test, equilibrium method, UV-visible spectrophotometry
Type: physicochemical
condition.context: water, thermodynamic from solid; read-out: Solubility in Water
measure: log10 of solubility (log10 of the value in µg/mL)
Log scale reminder: solubility in µg/mL, then log10 taken.

CCc1c2c(nc3ccc(OC(=O)NCCCOCc4cn([C@H]5O[C@@H](CO)[C@H](O)[C@@H](O)[C@@H]5O)nn4)cc13)-c1cc3c(c(=O)n1C2)COC(=O)[C@]3(O)CC [Compound 80] | 1.92

Q) log10 of solubility for CCc1c2c(nc3ccc(OC(=O)NCCOCc4cn([C@H]5O[C@@H](CO)[C@H](O)[C@@H](O)[C@@H]5O)nn4)cc13)-c1cc3c(c(=O)n1C2)COC(=O)[C@]3(O)CC [Compound 66] ?
A) 2.99

Q) log10 of solubility for CCc1c2c(nc3ccc(OC(=O)NCCCCCOCc4cn(CCO[C@H]5O[C@@H](CO)[C@H](O)[C@@H](O)[C@@H]5O)nn4)cc13)-c1cc3c(c(=O)n1C2)COC(=O)[C@]3(O)CC [Compound 88] ?
A) 3.05

Q) log10 of solubility for CCc1c2c(nc3ccc(OC(=O)NCCOCc4cn(CCO[C@H]5O[C@@H](CO)[C@H](O)[C@@H](O)[C@@H]5O)nn4)cc13)-c1cc3c(c(=O)n1C2)COC(=O)[C@]3(O)CC [Compound 67] ?
A) 3.10

Q) log10 of solubility for CCc1c2c(nc3ccc(OC(=O)NCCOCCOCc4cn(CCO[C@H]5O[C@@H](CO)[C@H](O)[C@@H](O)[C@@H]5O)nn4)cc13)-c1cc3c(c(=O)n1C2)COC(=O)C3(O)CC (some centres unmarked) [Compound 74] ?
A) 2.90

----------
Test system: PANC-1
test.summary: Cytotoxicity test (MTT, 72 h)
condition.context: Homo sapiens, PANC-1, 72 h, read-out: 50% Inhibiting Concentration value (IC50)
Structures can show the parent of a compound that is named as a salt.
pIC50 overview
// returns pIC50 (minus log10 of molar concentration), number only

A selection of reference data follows.
CCc1c2c(nc3ccc(OC(=O)NCCOCCOCc4cn(CCO[C@H]5O[C@@H](CO)[C@H](O)[C@@H](O)[C@@H]5O)nn4)cc13)-c1cc3c(c(=O)n1C2)COC(=O)C3(O)CC (stereo partly shown) | 4.95
CCc1c2c(nc3ccc(OC(=O)OCCOCCOCCOCCOCc4cn([C@H]5O[C@@H](CO)[C@H](O)[C@@H](O)[C@@H]5O)nn4)cc13)-c1cc3c(c(=O)n1C2)COC(=O)[C@]3(O)CC | 5.16
CCc1c2c(nc3ccc(OC(=O)NCCOCc4cn(CCO[C@H]5O[C@@H](CO)[C@H](O)[C@@H](O)[C@@H]5O)nn4)cc13)-c1cc3c(c(=O)n1C2)COC(=O)[C@]3(O)CC | 5.54

Q) pIC50 for `CCc1c2c(nc3ccc(OC(=O)NCCOCc4cn([C@H]5O[C@@H](CO)[C@H](O)[C@@H](O)[C@@H]5O)nn4)cc13)-c1cc3c(c(=O)n1C2)COC(=O)[C@]3(O)CC` ?
A) 5.17

Q) pIC50 for `CCc1c2c(nc3ccc(OC(=O)NCCCCCOCc4cn([C@H]5O[C@@H](CO)[C@H](O)[C@@H](O)[C@@H]5O)nn4)cc13)-c1cc3c(c(=O)n1C2)COC(=O)[C@]3(O)CC` ?
A) 5.12

Q) pIC50 for CCc1c2c(nc3ccc(OC(=O)N4CCC(N5CCCCC5)CC4)cc13)-c1cc3c(c(=O)n1C2)COC(=O)[C@]3(O)CC [CPT-11, Irinotecan hydrochloride, reference compound] ?
A) 4.66

Q) pIC50 for `CCc1c2c(nc3ccc(OC(=O)NCCCCCOCc4cn(CCO[C@H]5O[C@@H](CO)[C@H](O)[C@@H](O)[C@@H]5O)nn4)cc13)-c1cc3c(c(=O)n1C2)COC(=O)[C@]3(O)CC` ?
A) 4.96

Q) pIC50 for `CCc1c2c(nc3ccc(OC(=O)OCCOCCOCCOCc4cn([C@H]5O[C@@H](CO)[C@H](O)[C@@H](O)[C@@H]5O)nn4)cc13)-c1cc3c(c(=O)n1C2)COC(=O)[C@]3(O)CC` ?
A) 4.87

Q) pIC50 for `CCc1c2c(nc3ccc(OC(=O)OCCOCCOCCOCCOCc4cn(CCO[C@H]5O[C@@H](CO)[C@H](O)[C@@H](O)[C@@H]5O)nn4)cc13)-c1cc3c(c(=O)n1C2)COC(=O)[C@]3(O)CC` ?
A) 5.02

Q) pIC50 for `CCc1c2c(nc3ccc(OC(=O)OCCOCCOCCOCc4cn(CCO[C@H]5O[C@@H](CO)[C@H](O)[C@@H](O)[C@@H]5O)nn4)cc13)-c1cc3c(c(=O)n1C2)COC(=O)[C@]3(O)CC` ?
A) 5.44

----------
Test system: SW-480
test.summary: Cytotoxicity test (MTT, 72 h)
condition.context: Homo sapiens, SW480, 72 h, read-out: 50% Inhibiting Concentration value (IC50)
pIC50: −log10 of the molar value.
Values of pIC50 greater than or equal to 7 map to Condition met; values below map to Condition not met.

CCc1c2c(nc3ccc(OC(=O)OCCOCCOCc4cn([C@H]5O[C@@H](CO)[C@H](O)[C@@H](O)[C@@H]5O)nn4)cc13)-c1cc3c(c(=O)n1C2)COC(=O)[C@]3(O)CC | Condition not met

Q) Tell me whether pIC50 is at least 7 here: `CCc1c2c(nc3ccc(OC(=O)NCCCOCc4cn(CCO[C@H]5O[C@@H](CO)[C@H](O)[C@@H](O)[C@@H]5O)nn4)cc13)-c1cc3c(c(=O)n1C2)COC(=O)[C@]3(O)CC`
A) Condition not met

Q) Tell me whether pIC50 is at least 7 here: `CCc1c2c(nc3ccc(OC(=O)OCCOCCOCCOCc4cn([C@H]5O[C@@H](CO)[C@H](O)[C@@H](O)[C@@H]5O)nn4)cc13)-c1cc3c(c(=O)n1C2)COC(=O)[C@]3(O)CC`
A) Condition not met

Q) Tell me whether pIC50 is at least 7 here: `CCc1c2c(nc3ccc(OC(=O)NCCOCc4cn(CCO[C@H]5O[C@@H](CO)[C@H](O)[C@@H](O)[C@@H]5O)nn4)cc13)-c1cc3c(c(=O)n1C2)COC(=O)[C@]3(O)CC`
A) Condition not met

Q) Tell me whether pIC50 is at least 7 here: `CCc1c2c(nc3ccc(OC(=O)OCCOCc4cn([C@H]5O[C@@H](CO)[C@H](O)[C@@H](O)[C@@H]5O)nn4)cc13)-c1cc3c(c(=O)n1C2)COC(=O)[C@]3(O)CC`
A) Condition met
